Cited source for all entries: patent US7429578B2

measurement_type: melting point

Illustrative cases are given below, each with its answer.
smiles_text: O=C1NCCc2c(-c3ccc4[nH]ccc4c3)[nH]c3cccc1c23
result_value: 315 to 317 °C (dec.)

smiles_text: COc1ccccc1-c1[nH]c2cccc3c2c1CCNC3=O
result_value: 254 to 255 °C

smiles_text: COC(=O)c1[nH]c2cccc3c2c1CCNC3=O
result_value: 266 to 267 °C

smiles_text: O=C1NCCc2c(-c3ccncc3)[nH]c3cccc1c23
result_value: 250 °C (dec.)

smiles_text: O=C1NCCc2c(-c3ccc(Cl)c(C(F)(F)F)c3)[nH]c3cccc1c23
result_value: 118.5 to 119 °C

**Q:** I would be grateful if you could share the reported melting point for CC1=NNC(=O)c2cccc3[nH]cc1c23 .
**A:** 335 to 336 °C

**Q:** I would be grateful if you could share the reported melting point for O=C(Nc1ccccc1)c1[nH]c2cccc3c2c1CCNC3=O .
**A:** 320 to 322 °C (dec.)

----------
system_name: purified PARP protein (Homo sapiens, UniProt P09874)
Sequence (P09874 whole entry): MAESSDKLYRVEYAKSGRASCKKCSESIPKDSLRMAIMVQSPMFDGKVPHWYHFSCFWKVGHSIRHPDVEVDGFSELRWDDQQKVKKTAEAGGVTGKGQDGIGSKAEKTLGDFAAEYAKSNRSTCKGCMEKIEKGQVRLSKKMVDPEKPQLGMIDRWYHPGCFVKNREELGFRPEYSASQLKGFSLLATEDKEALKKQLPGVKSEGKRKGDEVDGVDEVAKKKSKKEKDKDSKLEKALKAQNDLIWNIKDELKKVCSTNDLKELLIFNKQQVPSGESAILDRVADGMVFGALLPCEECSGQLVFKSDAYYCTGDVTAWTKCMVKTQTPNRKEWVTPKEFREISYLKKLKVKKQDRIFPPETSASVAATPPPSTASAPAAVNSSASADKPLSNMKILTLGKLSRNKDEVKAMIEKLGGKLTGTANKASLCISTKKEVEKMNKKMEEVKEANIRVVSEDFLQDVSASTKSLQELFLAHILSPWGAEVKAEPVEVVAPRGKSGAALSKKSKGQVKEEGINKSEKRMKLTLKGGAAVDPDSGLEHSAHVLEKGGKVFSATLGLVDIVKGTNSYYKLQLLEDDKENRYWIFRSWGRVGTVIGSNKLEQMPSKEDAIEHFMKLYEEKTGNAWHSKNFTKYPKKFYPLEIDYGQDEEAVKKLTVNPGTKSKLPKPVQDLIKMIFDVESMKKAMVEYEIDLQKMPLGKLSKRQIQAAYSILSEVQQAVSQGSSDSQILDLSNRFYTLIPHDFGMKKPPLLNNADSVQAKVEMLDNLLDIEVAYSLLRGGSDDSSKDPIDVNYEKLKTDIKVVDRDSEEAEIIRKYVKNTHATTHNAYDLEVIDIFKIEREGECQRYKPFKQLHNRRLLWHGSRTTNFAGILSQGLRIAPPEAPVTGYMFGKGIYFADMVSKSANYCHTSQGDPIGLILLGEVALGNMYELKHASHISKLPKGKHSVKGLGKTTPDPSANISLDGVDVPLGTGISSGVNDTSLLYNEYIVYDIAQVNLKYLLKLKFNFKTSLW
measurement_description: PARP enzyme inhibition assay
Type: biochemical
condition_details: [32P]NAD+ incorporation, 500 μM NAD+, 25° C.; two values in a cell = tested twice; read-out: Inhibition Constant Ki
pKi: −log10 of the molar value. Structures can show the parent of a compound that is named as a salt.
measurement_type: pKi

molecule: O=C(O)c1[nH]c2cccc3c2c1CCNC3=O [KKK, sodium salt]
result_value: 6.65
//
molecule: O=C(Nc1ccc(Cl)cc1)c1[nH]c2cccc3c2c1CCNC3=O [LLLL]
result_value: 8.07
//
molecule: COc1ccc(Cl)cc1-c1[nH]c2cccc3c2c1CCNC3=O [SSS]
result_value: 7.18
//
molecule: O=C1NCCc2c(-c3ccccc3)[nH]c3cccc1c23 [Compound 12]
result_value: 8.38

A. O=C1NCCc2c(-c3cccc(C(F)(F)F)c3)[nH]c3cccc1c23 [Compound 30]
B. O=C1NCCc2c(-c3cccc([N+](=O)[O-])c3)[nH]c3cccc1c23 [Compound 14]
**Q:** Exercise: compare A and B ; which one has the greater pKi? Label of pick, please.
**A:** B
(B: 8.85, A: 8.20)
